Just for reference, the supplement of paper PMC12042874 is where these values come from.

Test: amyloid nucleation score (Sup35N fusion, yeast selection) (log enrichment); library NNK1; higher = more nucleation; inactive = no reads after selection;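 further: zero at mode of non-aggregating sequences after 7 days selection at 30°C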
Parameter amyloid nucleation score: see the listing below.
Reply briefly: the number, and no unit.

Please give the measured amyloid nucleation score for this substance: FRSGTHWSMDFGHAKEIRR
1.39

Then RSLFPFSSLDMGHRRVGGKV ?
0.384

// same read-out, input: NWCTNTRSIFTIRGTDAGTL
-0.721

* * *

Experiment: amyloid nucleation score (Sup35N fusion, yeast selection) (log enrichment); library NNK2; higher = more nucleation; inactive = no reads after selection
Property: amyloid nucleation score; scope: individual sequences

Recorded amyloid nucleation score, per entry:
{"columns": ["seq string", "val"],
 "data": [
  ["VLNITEIYFVG", 8.12],
  ["IGCSWSKQELVISNLLVFLF", -1.52],
  ["TRNWRGYVCYSEVIIVVKQE", -0.839],
  ["VSVNSGSVKLFVIPACCSYD", 6.1],
  ["DCNVWSSSERKVLSRGTSDF", -0.193],
  ["LPRMGSEWFVCWLCSCVATW", 0.718]
]}

Field request: amyloid nucleation score | item: VDAFLWHVDVHMFIEVGVRW
-0.024

For FFTQGSCDTILRGLAFFTPR then?
-0.26

* * *

Test: amyloid nucleation score (Sup35N fusion, yeast selection) (log enrichment); library NNK3; higher = more nucleation; inactive = no reads after selection
attribute measured: amyloid nucleation score

Solved cases (5 shown):
{"columns": ["substance", "amyloid nucleation score"],
 "data": [
  ["CACIPNFPCKSYHYWRSCNI", "inactive"],
  ["LNPPNKYDLDVFWVMVSYKK", "inactive"],
  ["AIVCMHYQVVHCVKVSTCCY", "inactive"],
  ["FVTIRGVRRTCNPFKGINYG", "inactive"],
  ["NSFMCCRSWDTN", 2.71]
]}

Given the substance PLLFSRVSLDL , what is its reported amyloid nucleation score?
inactive

Likewise for LRVMSI ?
-0.964

* * *

Experiment: amyloid nucleation score (Sup35N fusion, yeast selection) (log enrichment); library NNK2; higher = more nucleation; inactive = no reads after selection
attribute measured: amyloid nucleation score

{"columns": ["seq string", "amyloid nucleation score"],
 "data": [
  ["FRFANRVTIKSFLGV", "inactive"],
  ["YFDGVIWLLTYRIFMANDYS", "inactive"],
  ["MADTPSNFKYYLPKLFKG", "inactive"],
  ["RRLFRLVVYFLPNR", "inactive"]
]}

I'd like to know its amyloid nucleation score. The sequence in question is VLSSRLASIEGNKSSVGFYG
inactive

* * *

Test: amyloid nucleation score (Sup35N fusion, yeast selection) (log enrichment); library NNK1; higher = more nucleation; inactive = no reads after selection
Here, each record is paired with measured amyloid nucleation score data.
A bare number is all that is needed in reply.

May I ask what amyloid nucleation score has been recorded for SWSEVGWTHCMSWASHI ?
-1.14

What do you get for ESWAITWVGLYGCTLTVIRN ?
-0.148

Then this sequence: LSFETRRWMYYIS
0.446

Field entry: CRYTITFLVQKYLLDFFA
-0.074

Further, for LALGPLHSVLRGVINMGYGI ?
-0.88

Now consider DPVVFDSWELLKQWISCKRC and answer again.
0.226

Then this sequence: CFFMEFYVPNSIIIYVRTPV
-1.89

Would you kindly repeat that for VNRYFVFVSVMIYMLCESRF ?
0.295

* * *

Assay: amyloid nucleation score (Sup35N fusion, yeast selection) (log enrichment); library NNK2; higher = more nucleation; inactive = no reads after selection

{"columns": ["substance", "amyloid nucleation score"],
 "data": [
  ["QLKSFR", "inactive"],
  ["KDDSQLVLRDRPSRLWRLKE", 0.804],
  ["ETVLFYSV", "inactive"],
  ["FWYFPDIIWG", "inactive"]
]}

* * *

Parameter amyloid nucleation score: see the listing below.
Assay: amyloid nucleation score (Sup35N fusion, yeast selection) (log enrichment); library NNK1; higher = more nucleation; inactive = no reads after selection
Just the number.

For the substance shown here, VKPLLIHIRALLEM , give the reported amyloid nucleation score.
1.55

* * *

Assay: amyloid nucleation score (Sup35N fusion, yeast selection) (log enrichment); library NNK3; higher = more nucleation; inactive = no reads after selection
attribute measured: amyloid nucleation score

Guide cases for amyloid nucleation score, answers given:
{"columns": ["substance", "attribute measured", "val"],
 "data": [
  ["RNNDDSVLMDMLCMKCRTWL", "amyloid nucleation score", "inactive"],
  ["SELRWYL", "amyloid nucleation score", "inactive"],
  ["YHAYRTGE", "amyloid nucleation score", "inactive"],
  ["VTVSHCRIRFFRLESDDGLC", "amyloid nucleation score", -0.218],
  ["NHESVVWDMNGHPSPVGRGE", "amyloid nucleation score", "inactive"]
]}

Fill blank: measured amyloid nucleation score of the substance FLMVLSMDLYVKLLLGSYIN is ____.
inactive

Would you kindly repeat that for KLYYIVRCEFCRDCKMAWGN ?
1.29

Query RVIDQMNPQGGWDLTFDSRR next
inactive

* * *

Test: amyloid nucleation score (Sup35N fusion, yeast selection) (log enrichment); library NNK2; higher = more nucleation; inactive = no reads after selection
Label criterion met for high-side amyloid nucleation score (at or above 0.8) and criterion not met for low-side amyloid nucleation score (below it).

{"columns": ["substance", "category label"],
 "data": [
  ["TSSCFDCSFNMEFLMVLVSF", "criterion met"]
]}

amyloid nucleation score >= 0.8 for LGICPFNGSLRS ?
criterion not met

Likewise for KLWAPWYNLWLFALTIVCDI ?
criterion not met

* * *

Assay: amyloid nucleation score (Sup35N fusion, yeast selection) (log enrichment); library NNK3; higher = more nucleation; inactive = no reads after selection
attribute measured: amyloid nucleation score

{"columns": ["substance", "amyloid nucleation score"],
 "data": [
  ["VVGIKKDRNNTYDSSWLASC", "inactive"],
  ["VDVDPVSSD", "inactive"],
  ["ISRSVIIDSQRGLCCQTWDW", "inactive"],
  ["GKISTRFRFFSVDETRPTIN", 1.18],
  ["APRRHVKGDSHIRWCVRDR", "inactive"],
  ["NVGMSKNVFGM", "inactive"]
]}

Data request, read-out amyloid nucleation score, for GGRDNTEIDVMTWRRRPGKS
inactive

Param item: RCLEEP
0.145

What would you report for HRIVSFYRNSWVPSIFVYED ?
inactive

* * *

The sequences listed here are annotated with their amyloid nucleation score.
Assay: amyloid nucleation score (Sup35N fusion, yeast selection) (log enrichment); library NNK2; higher = more nucleation; inactive = no reads after selection
Lab note: jot down the number only; don't add units.

Field: example entries. Status: answers known.
{"columns": ["seq string", "amyloid nucleation score"],
 "data": [
  ["FTESCQCS", -0.08],
  ["WFMSKAYVTSCALFSRVIHT", 0.914],
  ["SCPNYTVSIWIYMPFFSWLR", 2.81],
  ["NYSYMSMHTSCLSKTPSSRA", -1.42],
  ["SWSCRMEADSGFPAFIGAKK", -0.47],
  ["SWRTWISRCYFTLDDVSKTA", 0.181]
]}

Would you mind telling me what amyloid nucleation score value was observed for CDMFLSYLRT ?
1.74

* * *

Experiment: amyloid nucleation score (Sup35N fusion, yeast selection) (log enrichment); library NNK3; higher = more nucleation; inactive = no reads after selection
attribute measured: amyloid nucleation score

Worked examples follow.
{"columns": ["substance", "amyloid nucleation score"],
 "data": [
  ["FYSNPNIVGFLMLLVYILEP", "inactive"],
  ["VGSYVGRAVVEGYNCRVDTG", "inactive"],
  ["MIKMAIRNLGYCSDYRTLCR", "inactive"],
  ["FGRTHAYSLFQKKSGFLLTP", "inactive"],
  ["KNTSIK", "inactive"]
]}

Please report the recorded amyloid nucleation score for DGAEDCRS .
-1.03

// query: SKVKDDALPTTILCGTYNLN
inactive

Another substance to look at: ALDMVLYL
inactive

Next record, please: NRSTWCW
inactive

* * *

Assay: amyloid nucleation score (Sup35N fusion, yeast selection) (log enrichment); library NNK2; higher = more nucleation; inactive = no reads after selection

{"columns": ["substance", "amyloid nucleation score"],
 "data": [
  ["IERPVRVHRYKT", "inactive"],
  ["VPSGSLD", "inactive"],
  ["PRCYLVLKFYSQCLFSVHTF", "inactive"]
]}

* * *

Experiment: amyloid nucleation score (Sup35N fusion, yeast selection) (log enrichment); library NNK3; higher = more nucleation; inactive = no reads after selection
attribute measured: amyloid nucleation score

Worked cases, answers included:
{"columns": ["seq string", "val"],
 "data": [
  ["MYQLLMFAYVT", "inactive"],
  ["FFCGFRKTAASHFLFLVKDW", "inactive"],
  ["WHTAKGTWSTGRQEDTGQSR", "inactive"],
  ["FVQSGLFFMCDGSCGLLRVF", "inactive"],
  ["TIYSLFSLYLGIWQAPASVY", -0.455]
]}

Look up amyloid nucleation score: LELLRTERKRMKCLKPVLRV
inactive

Follow-up item: TFLVTRVPYSFF
inactive

Now try KSYFANSG .
inactive

For FSRTRVTLV then?
inactive

# iterate: LVTSTSMG
2.77

Repeat for the following sequence: TRAMHSFWFESDCKY
inactive

Next sequence up: TFSQGSWRTESSLRDGGCLD
inactive
